subject_of_test: CYP2D6 (Homo sapiens, UniProt P10635)
Construct: host or cells: E. coli
Sequence (P10635 whole entry): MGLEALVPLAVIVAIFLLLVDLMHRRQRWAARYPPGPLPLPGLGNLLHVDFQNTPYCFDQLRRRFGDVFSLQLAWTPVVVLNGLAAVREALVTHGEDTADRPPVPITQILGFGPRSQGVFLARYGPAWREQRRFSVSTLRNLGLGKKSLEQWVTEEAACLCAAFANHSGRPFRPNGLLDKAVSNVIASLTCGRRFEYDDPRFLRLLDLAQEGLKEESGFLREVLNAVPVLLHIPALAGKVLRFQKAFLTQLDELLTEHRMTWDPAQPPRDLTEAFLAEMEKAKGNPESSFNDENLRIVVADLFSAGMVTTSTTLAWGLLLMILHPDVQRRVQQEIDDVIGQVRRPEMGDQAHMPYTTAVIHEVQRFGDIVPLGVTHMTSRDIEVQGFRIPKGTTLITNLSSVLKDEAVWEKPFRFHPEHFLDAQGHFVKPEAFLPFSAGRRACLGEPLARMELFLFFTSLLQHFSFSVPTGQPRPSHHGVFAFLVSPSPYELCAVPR
protocol_description: CYP450 inhibition, fluorescent substrate assay, CYP2D6
Assay type: biochemical
condition_description: E. coli expressed CYP2D6, pH 7.4, probe AMMC (3 μM), 10 μM test compound, substrate AMMC 3 μM, read-out: 2D6-AMMC % inh.
Each entry below lists one item and its recorded inhibition at 45 min, 10 μM value.
Just the number please, in %, no unit attached.

Example entries and their recorded answers appear below.
# molecule, inhibition at 45 min, 10 μM [%]
records = [
    ("CC(C)CN(C[C@@H](O)[C@H](Cc1ccccc1)NC(=O)OCc1cncs1)C(=O)OCc1cncs1 [Compound C25]", 91),
    ("CC(C)CN(C[C@@H](O)[C@H](Cc1ccccc1)NC(=O)OCc1cncs1)C(=O)c1cnc2ccccc2n1 [Compound C12]", 0),
]

Please find the next molecule below.
*Q* Entry CC(C)(O)CN(C[C@@H](O)[C@H](Cc1ccccc1)NC(=O)OCc1cncs1)C(=O)c1ccncc1 [Compound C26] needs its inhibition at 45 min, 10 μM filled in; supply it.
*A* 30
